The measurements presented in this section are drawn from ChEMBL document CHEMBL4342434.

Consider the following compounds; for each one, report its pIC50.
# Tested on: T-24
# Protocol: Antiproliferative activity against human T24 cells assessed as reduction in cell viability incubated for 48 hrs by MTT assay
# Assay type: functional, cell-based
# Stated Conditions: T-24, 48 h
Expect pIC50 as a plain number equal to -log10 of the molar concentration.

Give pIC50 for Oc1ccccc1N1CCN(CC(O)COc2ccc(O)c3ccccc23)CC1 (stereo not drawn)
4.83

Give pIC50 for COc1cc(O)ccc1N1CCN(CC(O)COc2ccc(O)c3ccccc23)CC1 (stereo not drawn)
4.43

Give pIC50 for COc1ccccc1N1CCN(CC(O)COc2cccc3ccccc23)CC1 (stereo not drawn)
4.73

Give pIC50 for COc1cc(O)ccc1N1CCN(CC(O)COc2cccc3ccccc23)CC1 (stereo not drawn)
4.98

Give pIC50 for Oc1ccc(N2CCN(CC(O)COc3ccc(O)c4ccccc34)CC2)c(O)c1 (stereo not drawn)
4.81

Give pIC50 for Oc1ccc(N2CCN(CC(O)COc3cccc4ccccc34)CC2)c(O)c1 (stereo not drawn)
4.87

Give pIC50 for COc1ccccc1N1CCN(CC(O)COc2ccc(O)c3ccccc23)CC1 (stereo not drawn)
4.79

Give pIC50 for Oc1ccccc1N1CCN(CC(O)COc2cccc3ccccc23)CC1 (stereo not drawn)
4.74

* * *

Consider the following compounds; for each one, report its pIC50.
# Test system: 786-0
# Protocol: Antiproliferative activity against human 786-O cells assessed as reduction in cell viability incubated for 48 hrs by MTT assay
# Format: functional, cell-based
# Stated Conditions: 786-0, 48 h
Expect pIC50 as a plain number equal to -log10 of the molar concentration.

Give pIC50 for COc1cc(O)ccc1N1CCN(CC(O)COc2ccc(O)c3ccccc23)CC1 (stereo not drawn)
4.41

Give pIC50 for COc1ccccc1N1CCN(CC(O)COc2ccc(O)c3ccccc23)CC1 (stereo not drawn)
4.33

Give pIC50 for Oc1ccc(N2CCN(CC(O)COc3ccc(O)c4ccccc34)CC2)c(O)c1 (stereo not drawn)
4.73

Give pIC50 for Oc1ccccc1N1CCN(CC(O)COc2ccc(O)c3ccccc23)CC1 (stereo not drawn)
5.01

Give pIC50 for COc1ccccc1N1CCN(CC(O)COc2cccc3ccccc23)CC1 (stereo not drawn)
4.88

Give pIC50 for COc1cc(O)ccc1N1CCN(CC(O)COc2cccc3ccccc23)CC1 (stereo not drawn)
4.94

Give pIC50 for Oc1ccccc1N1CCN(CC(O)COc2cccc3ccccc23)CC1 (stereo not drawn)
4.73

Give pIC50 for Oc1ccc(N2CCN(CC(O)COc3cccc4ccccc34)CC2)c(O)c1 (stereo not drawn)
4.76

* * *

# Protocol: Cmax in Sprague-Dawley rat at 32 mg/kg, po measured after 15 mins by HPLC analysis
# Assay type: ADME, organism-based
# Design: dose 32 mg/kg, route oral
# Stated Conditions: in vivo
Consider the following compounds; for each one, report its Cmax.
Quick reminder: number only, in ng/mL, skip the unit.

Give Cmax for COc1ccccc1N1CCN(CC(O)COc2cccc3ccccc23)CC1 (configuration not stated)
110

Give Cmax for COc1cc(O)ccc1N1CCN(CC(O)COc2cccc3ccccc23)CC1 (configuration not stated)
397
